Overview of reported INHIBITION across a group of compounds:
- Test system: Plasmodium berghei
- experiment_description: Screen against P. berghei liver stage (PbLuc), transformed with Luciferase, at 10uM
- Type: functional, HepG2
- applied_conditions: tested at 10 uM
Among all 69,000 compounds or so, about 8,600 (12%) showed an effect of 50% or more. This is one part of a sample in which strong results are shown more often than they occur.
Dear colleague, please return just the value in %, with no unit written.

Output INHIBITION of `CCn1cc(CNC2CCN(c3cccc(C)c3C)CC2)cn1`
-12.1

Answer with the recorded INHIBITION of `Cc1cc(N2CCC(N(C)C(=O)Nc3ccccc3)CC2)nc(C)n1` only.
4.71

Give me measured INHIBITION, please, for this compound: `O=C(c1ccco1)N1CCC12CCN(c1ncc(F)cn1)CC2`
58

Return INHIBITION (reported value) for this compound: `NC(=O)Cn1nc(-c2ccccc2F)ccc1=O`
15.4

Return INHIBITION (reported value) for this compound: Fc1ccc(-c2cnc(CN3CCOC(Cn4cccn4)C3)o2)cc1 (stereo not drawn)
-21.8

Answer with reported INHIBITION of `Cc1cc(C)n(-c2ccccc2NC(=O)NCCS(=O)(=O)CC(C)C)n1`
32.5

Provide measured INHIBITION value, entry: O=C1OCCN1Cc1nc(C2(c3ccc(F)cc3)CCOC2)no1 (stereo not drawn)
-73.4

Answer with the recorded INHIBITION for the compound listed here: `Cc1nccc([C@@H]2C[C@@H]3CCN(S(=O)(=O)C4CC4)C[C@H]3O2)n1`
-37.9

Give reported INHIBITION value for `CCc1nc(C)ncc1C(=O)N1CCN(CC)c2ccccc21`
47.7

---

- Tested on: Plasmodium berghei
- experiment_description: Screen against P. berghei liver stage (PbLuc), transformed with Luciferase, at 10uM
- Assay type: functional, HepG2
- applied_conditions: tested at 10 uM
The campaign covered roughly 69,000 compounds. About 8,600 (12%) showed an effect of 50% or more. This is one part of a sample in which strong results are shown more often than they occur.
experimental_endpoint: INHIBITION (%)
Response body: numeric value in %, unit text excluded.

Indicate the recorded INHIBITION value for this compound: `Fc1cccc(CN2C[C@@H]3CN(c4ncccn4)C[C@@H]3C2)c1`
28.5

Provide INHIBITION value for the following compound: `CCOc1ccccc1CNC(=O)N1CCC(n2cncn2)CC1`
63.5

Give recorded INHIBITION. `CCOc1ncccc1NC(=O)N1CCC(n2cncn2)CC1`
-2.98

For Cc1cnc2n(c1=O)C(CC(=O)NCc1cccnc1)CS2 (centres undefined) , write its INHIBITION.
40.9

# return recorded INHIBITION for entry `Fc1cnc(N2C[C@H]3CN(Cc4cccc(F)c4)C[C@H]3C2)nc1`
60

State its INHIBITION: `Cc1ccc(CN2C[C@@H]3CN(c4ncc(F)cn4)C[C@@H]3C2)cc1`
46.7

Recall and state the measured INHIBITION for `CC(C)Oc1ccccc1CNC(=O)N1CCC(n2cncn2)CC1` .
51.3

---

- System: Plasmodium berghei
- experiment_description: Screen against P. berghei liver stage (PbLuc), transformed with Luciferase, at 10uM
- Format: functional, HepG2
- applied_conditions: tested at 10 uM
Screen size: about 69,000 compounds; about 8,600 (12%) showed an effect of 50% or more. This excerpt belongs to a sample that is enriched for strong results.
Where INHIBITION equals or exceeds 40%, the correct label is Condition met; where it does not, the label is Condition not met.

Sample answers from the record:
| molecule | system_name | cat |
| --- | --- | --- |
| CCn1cc(S(=O)(=O)N2CCCC3(CC=CNC3=O)C2)c(C)n1 (stereo unspecified) | Plasmodium berghei | Condition not met |
| O=C1NCCN(C(=O)c2cn3ccsc3n2)C1Cc1ccccc1 (stereo unspecified) | Plasmodium berghei | Condition met |
| COCC(=O)N1CCC(=O)N(C2CCCC2)Cc2cc(F)ccc21 | Plasmodium berghei | Condition not met |
| CC(C)(O)CCc1cccc(C(=O)NCc2cnn3cccnc23)c1 | Plasmodium berghei | Condition met |

Record `Cc1cnccc1CN(C)C(=O)c1cccc(CCC(C)(C)O)c1` ; criterion: INHIBITION no lower than 40%. Met?
Condition not met

Decide: INHIBITION of CCC(C)N(Cc1sccc1C)C(=O)c1ccc(S(C)(=O)=O)cc1 (stereo unspecified) >= 40%?
Condition not met

Hi team, for `O=C(NCc1cnn2cccnc12)c1cccc(CC2CCNCC2)c1` , is the recorded INHIBITION at or above 40%?
Condition met

In plain terms: is recorded INHIBITION at least 40% for CCn1ncc2c1C(COC)N(C(=O)c1ccc3c(c1)OCO3)CC2 (stereo unspecified) ?
Condition not met

Test whether the molecule `O=C(O)c1cc(S(=O)(=O)Nc2ccccc2)cc2c1OCCO2` records INHIBITION of 40% or higher.
Condition not met

Determine whether measured INHIBITION meets or exceeds 40% for `CC(C)Cn1cncc1CNC(=O)c1cccc(CC2CCNCC2)c1`
Condition met

Test whether the molecule `CC(C)=CCN1CCN(C(=O)c2cc(C)n[nH]2)[C@H]2CS(=O)(=O)C[C@H]21` records INHIBITION of 40% or higher.
Condition not met
